Numbers sourced from PubChem BioAssay AID1568.

methodNotes: Cell Viability Secondary Assay to Characterize qHTS Inhibitors of the Interaction of Thyroid Hormone Receptor and Steroid Receptor Coregulator 2
measurementContext: cell viability counter-screen, qHTS titration; series mostly up to 29.9 µM
Results filed as inconclusive are left out. The source made the active and inactive calls. The call rests on the fitted dose curve; in most records, active means well fitted curve in the direction sought with a large enough effect; inconclusive means small, poorly fitted or top-dose-only effect, or effect the other way, or another doubt; inactive means no such curve, though single readings can be large or run the other way.
Outcome codes: yes for active, no for inactive

In [3]: df
Out[3]:
                                    molecule  category
 0  Cc1c(C#N)c(O)n(CCO)c(=O)c1N=Nc1ccc2c(c1)COC2=O        no
 1  COc1ccc(CN2C(=O)Cc3c2nc(N)c2c(N)nc(N4CCCCC4)c(C#N)c32)cc1        no
 2  CCN(C(=O)C1CCCN(c2ncnc3onc(-c4ccc(F)cc4)c23)C1)c1ccccc1 (stereo not drawn)        no
 3  CS(=O)(=O)c1ccc(C(=O)OCC(=O)NC(=O)C2CCCCC2)cc1[N+](=O)[O-]        no
 4  Cc1ccc2c(CC(=O)Nc3c(C(=O)c4ccc(F)cc4)oc4ccccc34)coc2c1C        no
 5             CN(C(=S)Nc1cccnc1)c1ccc(O)cc1        no
 6                           Nc1cnccc1C(=O)O        no
 7     O=c1cc(C23CC4CC(CC(C4)C2)C3)[nH][nH]1        no
 8  CN(CCO)c1nc(N)c2c(N)nc3c(c2c1C#N)CC(=O)N3C1CCCC1        no
 9            Cc1cc(N=Cc2c(O)ccc3ccccc23)no1        no
10        Nc1cc(N)c(OCC(F)(F)F)cc1OCC(F)(F)F       yes
11          O=C(O)[C@H]1CN(CCCP(=O)(O)O)CCN1        no
12  N#Cc1c(NC(=O)c2ccccc2Cl)n(Cc2ccccc2)c2nc3ccccc3nc12        no
13  Cc1cc(C)cc(OCC(=O)NCCc2nc3ccccc3[nH]2)c1        no
14  CN1CCc2ccc3c4c2[C@]1(C)Cc1cccc(c1-4)OCO3       yes
15  Cc1[nH][nH]c(=O)c1C(c1ccc(-c2ccccc2C(=O)O)o1)c1c(C)[nH][nH]c1=O        no
16  CC1(C)C(N(O)C(=O)Nc2ccc(Cl)cc2)N(c2ccc(Cl)cc2)C(=O)N1CC(=O)NN (stereo not drawn)        no
17            CCCCOc1ccc(C(=O)CCN2CCOCC2)cc1        no
18  COc1cc(NC(C)CCCN)c2ncccc2c1 (stereo not drawn)       yes
19          Cc1nc2ccccc2n2c(O)c(CC(=O)O)cc12        no
20       Oc1ccc2ccccc2c1/C=N/c1nc2c(s1)CCCC2        no
21  Cc1cccc(S(=O)(=O)c2cn(Cc3ccccc3)c3cc(N4CCC(C)CC4)c(F)cc3c2=O)c1        no
22   Cc1nnc(SCC(=O)Nc2ccc(N(C)C)cc2)[nH]c1=O        no
23  COc1ccc(-c2nc(CS(=O)CC(=O)NCc3ccccn3)c(C)o2)cc1 (stereo not drawn)        no
24  CCOc1ccc(NC(=O)C(c2ccccn2)N(C(=O)CCl)c2ccc(F)cc2)cc1 (stereo not drawn)        no
25  CCOC(=O)c1cnc2nc(NCc3ccc(OC)c(OC)c3)[nH]n2c1=O        no
26  CCOC(=O)C(NC(=O)Nc1ccc(O)cc1)(c1ccccc1)C(F)(F)F (stereo not drawn)        no
27          CCCc1nc2c(=O)n(C)c(=O)nc-2n(C)n1       yes
